# Tested on: Escherichia coli
# RUN CONDITIONS: Concentration 20 uM; ASSAY_TEST Inhibition of Bacterial Growth; detection method Absorption (OD600); MEDIA CAMHB; plate type 384well; NBS; CORNING #3640; time 18 hr
# Description: Antibacterial activity against Escherichia coli ATCC 25922 (CO-ADD:GN_001); MIC in CAMBH media using NBS plates, by OD(600)
Potency and affinity values are given separately.
Could you please report measured Inhibition for the items listed next?
Answers are plain numbers, in %.

{"MOLECULE": "CCN(CC)CCOc1ccc(C(=C(Cl)c2ccccc2)c2ccccc2)cc1.O=C(O)CC(O)(CC(=O)O)C(=O)O [CLOMIPHENE CITRATE]", "Inhibition (%)": 2.4}

State recorded Inhibition for all listed molecules.
1. CC(=O)S[C@@H]1CC2=CC(=O)CC[C@]2(C)[C@H]2CC[C@@]3(C)[C@@H](CC[C@@]34CCC(=O)O4)[C@H]12
2. CC(=O)/N=c1/sc(S(N)(=O)=O)nn1C [METHAZOLAMIDE]
3. COc1cc(C(=O)NS(=O)(=O)c2ccccc2C)ccc1Cc1cn(C)c2ccc(NC(=O)OC3CCCC3)cc12
4. CC(=O)C1(O)CCC2C3CC(C)C4=CC(=O)C=CC4(C)C3(F)C(O)CC21C (stereo not given)
5. Cc1ccc(-c2cc(C(F)(F)F)nn2-c2ccc(S(N)(=O)=O)cc2)cc1
6. Cl.Nc1c2c(nc3ccccc13)CCCC2 [TACRINE HYDROCHLORIDE]

output:
5.07
3.59
4.93
2.15
6.38
0.14

State recorded Inhibition for all listed molecules.
1. CC(C)(C)NC(=O)[C@H]1CC[C@H]2[C@@H]3CC[C@H]4NC(=O)C=C[C@]4(C)[C@H]3CC[C@]12C [FINASTERIDE]
2. CCOC(=O)C1(CCCCCCOc2ccc(Cl)cc2)CO1 (stereo not given)
3. O=C(NCCO[N+](=O)[O-])c1cccnc1

output:
-5.85
-5.87
8.35

State recorded Inhibition for all listed molecules.
1. CC[N+](C)(CC)CCOC(=O)C(O)(c1ccccc1)C1CCCCC1.[Br-] (stereo not given) [OXYPHENONIUM BROMIDE]
2. CCN(CC)CCOC(=O)C1(C2CCCCC2)CCCCC1.Cl [DICYCLOMINE HYDROCHLORIDE]
3. COc1cc([C@@H]2c3cc4c(cc3[C@@H](O[C@@H]3O[C@@H]5CO[C@@H](C)O[C@H]5[C@H](O)[C@H]3O)[C@H]3COC(=O)[C@H]23)OCO4)cc(OC)c1O [ETOPOSIDE]
4. COc1ccc(OC)c(C(O)CNC(=O)CN)c1.Cl (stereo not given) [MIDODRINE HYDROCHLORIDE]

output:
1. 3.27
2. 0.37
3. -0.07
4. 4.77

State recorded Inhibition for all listed molecules.
1. Cl.NC12CC3CC(CC(C3)C1)C2 [AMANTADINE HYDROCHLORIDE]
2. COc1ccccc1N1CCN(CC(O)COc2cccc3ccccc23)CC1 (stereo not given)
3. Cc1cccc(C)c1OCC(C)N.Cl (stereo not given) [MEXILETINE HYDROCHLORIDE]
4. C[C@]12C=CC(=O)C=C1CC[C@@H]1[C@@H]2C(=O)C[C@@]2(C)[C@H]1CC[C@]2(O)C(=O)CO

output:
1. -0.07
2. 7.29
3. 3.59
4. 4.61

----------
# Test system: Staphylococcus aureus
# RUN CONDITIONS: Concentration 20 uM; ASSAY_TEST Inhibition of Bacterial Growth; detection method Absorption (OD600); MEDIA CAMHB; plate type 384well; NBS; CORNING #3640; time 18 hr
# Description: Antibacterial activity against Staphylococcus aureus MRSA ATCC 43300 (CO-ADD:GP_020); MIC in CAMBH media, using NBS plates, by OD(600)
Potency and affinity values are given separately.
MEASUREMENT NAME: Inhibition
Remember to put the unit after the number in your answer.

// solved cases for Inhibition follow
{"COMPOUND": "OCc1cc(C(O)CNCCCCCCOCCCCc2ccccc2)ccc1O (centres undefined) [SALMETEROL]", "Inhibition": "15.16%"}
{"COMPOUND": "C[C@H](CS)C(=O)N1CCC[C@H]1C(=O)O [CAPTOPRIL]", "Inhibition": "-7.06%"}
{"COMPOUND": "CCC(=O)OCC(=O)[C@@]1(OC(=O)CC)[C@@H](C)C[C@H]2[C@@H]3CCC4=CC(=O)C=C[C@]4(C)[C@@]3(Cl)[C@@H](O)C[C@@]21C [BECLOMETHASONE DIPROPIONATE]", "Inhibition": "4.92%"}
{"COMPOUND": "CCC(=O)O[C@]1(C(=O)SCF)[C@H](C)C[C@H]2[C@@H]3C[C@H](F)C4=CC(=O)C=C[C@]4(C)[C@@]3(F)[C@@H](O)C[C@@]21C [FLUTICASONE PROPIONATE]", "Inhibition": "-21.58%"}
{"COMPOUND": "COc1cc(C(=O)NC2CCCNC2)cc(OC)c1OC (centres undefined) [TROXIPIDE]", "Inhibition": "21.18%"}
{"COMPOUND": "CC(=O)C1(O)CCC2C3CC(C)C4=CC(=O)C=CC4(C)C3(F)C(O)CC21C (centres undefined)", "Inhibition": "5.95%"}
{"COMPOUND": "CC(CCc1ccccc1)NCC(O)c1ccc(O)c(C(N)=O)c1.Cl (centres undefined) [LABETALOL HYDROCHLORIDE]", "Inhibition": "13.4%"}
{"COMPOUND": "CCOC(=O)C1=C(C)NC(C)=C(C(=O)OC)C1c1cccc([N+](=O)[O-])c1 (centres undefined) [NITRENDIPINE]", "Inhibition": "11.21%"}

State recorded Inhibition for all listed compounds.
1. CCC(=O)[N-]S(=O)(=O)c1ccc(-c2c(-c3ccccc3)noc2C)cc1.[Na+] [PARECOXIB SODIUM]
2. CN(C)c1nc(N(C)C)nc(N(C)C)n1 [ALTRETAMINE]
3. CC1=C(CC(=O)O)c2cc(F)ccc2/C1=C\c1ccc([S+](C)[O-])cc1 (centres undefined)

output:
["0.13%", "15.78%", "2.19%"]

State recorded Inhibition for all listed compounds.
1. Cc1ncc([N+](=O)[O-])n1CC(C)O (centres undefined) [SECNIDAZOLE]
2. COC(=O)[C@H](c1ccccc1Cl)N1CCc2sccc2C1 [CLOPIDOGREL]
3. Nc1ncnc2c1ncn2[C@@H]1O[C@H](CO)C[C@@H]1O.O

output:
1: 11.92%; 2: 12.7%; 3: 7.37%
